// provenance: PubChem BioAssay AID2839

Reported IC50 values are given for each entry in this list.
# Tested on: Salmonella Typhi PhoP-promoter GFP reporter, low Mg2+, 4 h
# assay_protocol: PhoP promoter GFP reporter reduction in Typhi – purified and synthesized compounds, set 2, PhoP regulon inhibitor project, dose response (AID 2839)

Worked examples, 2 compounds total:
Determine its reported IC50: O=C(Nc1cccnc1)c1cc(Br)c(Br)s1
< 0.15 µM

Determine its reported IC50: C1=C(CCNc2ncnc3c2[nH]c2ccccc23)CCCC1
106 µM

Further cases:
Determine its reported IC50: O=C(Nc1ccc(Cl)cc1)N1CCCN(Cc2ccccc2F)C1
31.3 µM

Determine its reported IC50: CCn1cc(C(=O)O)c(=O)c2cc(F)c(N3CCN(C(=S)Nc4ccc(Cl)cc4)CC3)cc21
60.8 µM

Determine its reported IC50: CN(C)CCCN(C(=O)CCc1ccccc1)c1nc2ccc(Cl)cc2s1
< 0.15 µM

Determine its reported IC50: Cc1ccc(Nc2cc(C)c3c(O)cccc3n2)cc1C
9.67 µM
